Origin of measurements: PubChem BioAssay AID1159580

assay: chemical genetic growth profiling, strain panel (AID 1159580);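 also: tested at 20 µM; growth read once vehicle control cultures reached saturation at 30 °C; 1 = growth at the plate median or of vehicle wells; lower values mean less growth of the strain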; settings: S. cerevisiae deletion strains, growth OD, locus YIL066C, strain RNR3, hits give low values
About 2,000 (36%) of roughly 5,500 compounds were called active. Not shown: some 18% with an inconclusive outcome. This is one part of the list.
As shown below, each of these compounds has a reported normalized growth value.
property name: normalized growth

[[record]]
compound = "O=C(/C=C/c1ccccc1)c1ccc(O[C@@H]2O[C@H](CO)[C@@H](O)[C@H](O)[C@H]2O)cc1O"
experimental_result = 0.906

[[record]]
compound = "CN1C(=O)CC[C@H]1c1cccnc1"
experimental_result = 1.01

[[record]]
compound = "O=C(O)CC[N+](=O)[O-]"
experimental_result = 0.981

[[record]]
compound = "CNC(=O)Oc1cccc2c1OC(C)(C)C2"
experimental_result = 1.01

[[record]]
compound = "O=c1c(O)c(-c2ccccc2)oc2ccc3occc3c12"
experimental_result = 0.833

[[record]]
compound = "Cn1c(=O)[nH]c2nc[nH]c2c1=O"
experimental_result = 1.01

[[record]]
compound = "CC(C)N=C(N)N=C(N)Nc1ccc(Cl)cc1"
experimental_result = 1.01

[[record]]
compound = "CN(C)CCC[C@@]1(c2ccc(F)cc2)OCc2cc(C#N)ccc21"
experimental_result = 1.03

[[record]]
compound = "CC(=O)OC[C@@]1(O)C[C@@]23CCC4c5ccoc5CC[C@]4(C)C2CC[C@@H]1C3 (some centres undefined)"
experimental_result = 0.981


###

test: chemical genetic growth profiling, strain panel (AID 1159580);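 also: tested at 20 µM; growth read once vehicle control cultures reached saturation at 30 °C; 1 = growth at the plate median or of vehicle wells; lower values mean less growth of the strain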; conditions: S. cerevisiae deletion strains, growth OD, locus YGL078C, strain dbp3, hits give low values
The campaign covered roughly 5,500 compounds. About 2,000 (36%) were called active. Not shown: some 18% with an inconclusive outcome. The list shows a part of the results.
property name: normalized growth

[[record]]
compound = "C=C(C)C1Cc2c(ccc(C(=O)O)c2O)O1 (stereo unspecified)"
experimental_result = 0.932

[[record]]
compound = "CC(=O)Nc1c(I)cc(I)c(C(=O)O)c1I"
experimental_result = 0.995

[[record]]
compound = "CN1CCC[C@H]1c1cccnc1"
experimental_result = 0.994

[[record]]
compound = "O=C1C(=O)c2ccccc2C(O)=C1C1CCC(c2ccc(Cl)cc2)CC1 (stereo unspecified)"
experimental_result = 1

[[record]]
compound = "COC(=O)C(O)[C@H]1C(C)(C)[C@@H](OC(C)=O)[C@@H]2CC3=C4CC(=O)O[C@@H](c5ccoc5)[C@]4(C)CCC3[C@@]1(C)C2=O (stereo partly specified)"
experimental_result = 1.01

[[record]]
compound = "C[N+]12CCC(CC1)C(OC(=O)C(O)(c1ccccc1)c1ccccc1)C2 (stereo unspecified)"
experimental_result = 0.992


###

assay: chemical genetic growth profiling, strain panel (AID 1159580);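 also: tested at 20 µM; growth read once vehicle control cultures reached saturation at 30 °C; 1 = growth at the plate median or of vehicle wells; lower values mean less growth of the strain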; conditions: S. cerevisiae deletion strains, growth OD, locus YER110C
About 2,000 (36%) of roughly 5,500 compounds were called active. Not shown: some 18% with an inconclusive outcome. Rule as the data show it: active = normalized growth mostly below about 0.91 (no sharp cut-off); inconclusive = no clear call, values can overlap the other calls; inactive = mostly above about 0.92. The list shows a part of the results.
Labels: class 1 = active, class 0 = inactive

[[record]]
structure_string = "O=C1c2cccc(O)c2C(=O)c2c(O)cccc21"
assigned_category = "class 1"

[[record]]
structure_string = "C=C[C@H]1CN2CC[C@H]1C[C@H]2[C@H](O)c1ccnc2ccccc12"
assigned_category = "class 0"

[[record]]
structure_string = "Cn1c(=O)c2c(ncn2CCCl)n(C)c1=O"
assigned_category = "class 0"

[[record]]
structure_string = "O=C(/C=C/c1ccccc1)c1c(O)cc(O)cc1O"
assigned_category = "class 0"

[[record]]
structure_string = "O=C1C=CC(=O)c2c(O)cccc21"
assigned_category = "class 0"

[[record]]
structure_string = "O=C(Nc1ccc([N+](=O)[O-])cc1Cl)c1cc(Cl)ccc1O"
assigned_category = "class 0"

